# Tested on: PPARg:RXRa IVT, anti-PPARg (NR concentration 270 nM, RXRa partner concentration 90 nM)
# TEST DESCRIPTION: PBM binding z-score (relative to random genomic background probes); higher = stronger binding; sequences stand for … in GC…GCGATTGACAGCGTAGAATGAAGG
Short version: PBM binding z-score at least 2 is yes, less is no.

Below, 10 sequences whose answers are already recorded.
SEQ STRING | SYSTEM TESTED | CLASSIFICATION
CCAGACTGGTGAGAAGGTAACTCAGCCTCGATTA | PPARg:RXRa IVT, anti-PPARg (NR concentration 270 nM, RXRa partner concentration 90 nM) | no
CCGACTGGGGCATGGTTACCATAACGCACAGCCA | PPARg:RXRa IVT, anti-PPARg (NR concentration 270 nM, RXRa partner concentration 90 nM) | yes
ATACCAGGGTGATCGTGAGGTCGTTGATACTAAC | PPARg:RXRa IVT, anti-PPARg (NR concentration 270 nM, RXRa partner concentration 90 nM) | no
CCAGATAGGTGAAAGGTAACTCAGTCTGGTACGC | PPARg:RXRa IVT, anti-PPARg (NR concentration 270 nM, RXRa partner concentration 90 nM) | yes
ATCGAAAGGTCGTGAGGCGAGTATACAGAAAGGC | PPARg:RXRa IVT, anti-PPARg (NR concentration 270 nM, RXRa partner concentration 90 nM) | no
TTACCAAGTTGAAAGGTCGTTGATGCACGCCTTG | PPARg:RXRa IVT, anti-PPARg (NR concentration 270 nM, RXRa partner concentration 90 nM) | no
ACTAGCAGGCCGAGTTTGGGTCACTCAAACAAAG | PPARg:RXRa IVT, anti-PPARg (NR concentration 270 nM, RXRa partner concentration 90 nM) | no
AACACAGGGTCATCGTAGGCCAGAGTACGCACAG | PPARg:RXRa IVT, anti-PPARg (NR concentration 270 nM, RXRa partner concentration 90 nM) | yes
TAGCCTAGGTCAGATCGGGCCAGTATGCGCTATA | PPARg:RXRa IVT, anti-PPARg (NR concentration 270 nM, RXRa partner concentration 90 nM) | no
GGAACGAGGGCAAGTTGACAGCAGAGTTTGATGG | PPARg:RXRa IVT, anti-PPARg (NR concentration 270 nM, RXRa partner concentration 90 nM) | yes

Prompt: Answer whether PBM binding z-score of CCTACTGGGCCATCAGGTCAATGATATCAACGTT is greater than or equal to 2.
Response: yes

Prompt: Answer whether PBM binding z-score of TCATATAGGTAAAAGGTGAACGTCGGTGTGGTAA is greater than or equal to 2.
Response: yes

Prompt: Answer whether PBM binding z-score of TCAGACAGGTGAATGTAACTCAGGTACGCAGTCG is greater than or equal to 2.
Response: no

Prompt: Answer whether PBM binding z-score of CCGACTGGGGCATAAGGTTACTATAAGCCAGCCC is greater than or equal to 2.
Response: yes

Prompt: Answer whether PBM binding z-score of ATCTCTAGGTAAGAGTCAGTTCAGTGAAGAACGC is greater than or equal to 2.
Response: no

Prompt: Answer whether PBM binding z-score of ACTAGTTGGTCAGCTGAGGTCACAGACAATTCGG is greater than or equal to 2.
Response: yes

Prompt: Answer whether PBM binding z-score of CTGACTGGGGCAAAGGTTACCATACTCAGTACGA is greater than or equal to 2.
Response: yes

Prompt: Answer whether PBM binding z-score of CCGACTTGGGCATAAGGTTACCATAAGCCAGCCC is greater than or equal to 2.
Response: no

Prompt: Answer whether PBM binding z-score of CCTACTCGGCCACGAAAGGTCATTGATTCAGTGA is greater than or equal to 2.
Response: yes

Prompt: Answer whether PBM binding z-score of TCTATTATTTGATTAGGGCAACCGAAACAGCGGA is greater than or equal to 2.
Response: no

Prompt: Answer whether PBM binding z-score of CCTTTCGGGTCAAGGTTATAGCACGGGTGGTACG is greater than or equal to 2.
Response: yes

Ref: the supplement of paper PMC6555819
